Reference source for all entries: PubChem BioAssay (NCI)

Tested on: SNB-75 CNS
Test: NCI tumour cell line growth inhibition, 48 h
Entries and their measured GI50 follow.

Give GI50 (SNB-75 CNS) of the following molecule: COc1ccc(-n2cc(-c3ccc(Cl)c(Cl)c3)nc2SCc2cccc(C#N)c2)cc1
17 µM

Give GI50 (SNB-75 CNS) of the following molecule: CN(C)c1ccc2nc3ccc(=O)cc-3sc2c1
11.7 µM

Give GI50 (SNB-75 CNS) of the following molecule: O=C1/C(=C\c2cccn2Cc2ccccc2)c2ccccc2N1c1c(Cl)cccc1Cl
> 22.9 µM

Give GI50 (SNB-75 CNS) of the following molecule: CCOC(=O)N1CCN(C(=O)c2ccc(C(F)(F)F)nc2Nc2cc(Cl)ccc2C)CC1
1.41 µM

* * *

Test system: NCI-H226 lung
Assay: NCI tumour cell line growth inhibition, 48 h
Entries and their measured TGI follow.

[
  {
    "Compound": "COC1=C(Br)[C@H](O)[C@@]2(C=C1Br)CC(C(=O)NCCCCCN=C(N)N)=NO2",
    "TGI": "> 10 µM"
  }
]

// returns reported TGI for input C[C@]12CCC(=O)C=C1CC[C@@H]1C2CC[C@]2(C)c3nn(-c4ccc(F)cc4)nc3CC12 (stereo not given in full)
> 100 µM

// returns reported TGI for input N#CC(NNC(=O)Cc1ccccc1)c1ccccc1O (stereo not given)
68 µM

// returns reported TGI for input O=C(CCC/C(CC(=O)c1ccc(Br)cc1)=N\O)Nc1ccccc1
> 100 µM

// returns reported TGI for input O=C(/C=C/c1c(O)ccc2ccccc12)c1ccc2ccccc2c1
> 100 µM

// returns reported TGI for input Cc1ccc(Nc2nc(N)c(C(=O)c3ccc(C#N)cc3)s2)cc1
> 93.5 µM

// returns reported TGI for input N#CC(C(=O)/C(=N/Nc1nc(=S)[nH]n1N)C(C#N)c1ccccc1)c1ccccc1 (stereo not given)
> 100 µM

// returns reported TGI for input C=CCNC1=C2C[C@@H](C)C[C@@H](OC)[C@@H](OC(=O)CCCN)[C@H](C)/C=C(\C)[C@@H](OC(N)=O)[C@H](OC)/C=C\C=C(/C)C(=O)NC(=CC1=O)C2=O
36.3 µM

// returns reported TGI for input Cc1cccc(/C=N/NC(=S)NCCc2ccccn2)n1
66.3 µM

// returns reported TGI for input O=C(O)c1ccccc1-c1ccccc1C(=O)Nc1ccc2c(c1)Cc1cc(F)ccc1-2
> 100 µM

// returns reported TGI for input CC1=C(Br)C(Br)=C(C)S1=O
50.2 µM

// returns reported TGI for input O=C1NC(=O)C(CCO)(c2ccccc2)C(=O)N1
> 100 µM

// returns reported TGI for input CCC1c2[nH]c3ccccc3c2C[C@H]2C(=O)NC(COC(C)(C)C)C(=O)N12 (stereo not given in full)
> 100 µM

// returns reported TGI for input CC1=NC(=Cc2ccc(O)cc2)C(=O)N1n1c(-c2ccccc2)nc2ccccc2c1=O
> 100 µM

// returns reported TGI for input O=C1C(Cl)C(c2ccccc2)N1n1cnc2ccccc2c1=O (stereo not given)
> 100 µM

// returns reported TGI for input COc1ccc(C2C(C#N)=C(N)OC3=C2COc2ccc(F)cc23)cc1OC (stereo not given)
51.1 µM

// returns reported TGI for input CC12CCC(C(=O)OC1=O)C2(C)C (stereo not given)
> 100 µM
